meta.source: ChEMBL document CHEMBL1152145

For Peroxisome proliferator-activated receptor alpha (Mus musculus), measured EC50 is reported for the entries below.
Result Type: EC50 (nM)

* CCn1nc(C(=O)NCc2ccc(OC(C)(C)C(=O)O)c(C)c2)cc1-c1ccc(C(C)(C)C)cc1 | 2260
* Cc1cc(CNC(=O)c2cc(-c3ccc(-c4ccccc4C)cc3)n(C)n2)ccc1OC(C)(C)C(=O)O | 1800
* Cc1cc(CNC(=O)c2cc(-c3ccc(C(C)(C)C)cc3)n(C)n2)ccc1OC(C)(C)C(=O)O | 640
* Cc1cc(CNC(=O)c2cc(-c3ccc(C(C)C)cc3)n(C)n2)ccc1OC(C)(C)C(=O)O | 280
* C=CCn1nc(C(=O)NCc2ccc(OC(C)(C)C(=O)O)c(C)c2)cc1-c1ccc(C(C)(C)C)cc1 | 6000

* * *

- Assay Explanation: Volume of distribution at steady state in CD rat at […], iv and 5 mg/kg, po
- Assay type: ADME, organism-based
- Measurement Setup: in vivo, read-out: Vdss
Result Type: Vd (L/kg)

* Cc1cc(CNC(=O)c2cc(-c3ccc(C(C)(C)C)cc3)n(C)n2)ccc1OC(C)(C)C(=O)O | 0.3

* * *

For Peroxisome proliferator-activated receptor alpha (Homo sapiens, UniProt Q07869), measured EC50 is reported for the entries below.
Result Type: EC50 (nM)

• Cc1cc(CNC(=O)c2cc(-c3ccc(C(C)C)cc3)nn2C)ccc1OC(C)(C)C(=O)O = 20
• Cc1cc(CNC(=O)c2cc(-c3ccc(-c4ccccc4C)cc3)n(C)n2)ccc1OC(C)(C)C(=O)O = 90
• Cn1nc(-c2ccc(C(C)(C)C)cc2)cc1C(=O)NCc1ccc(OC(C)(C)C(=O)O)cc1 = 160
• CCn1nc(C(=O)NCc2ccc(OC(C)(C)C(=O)O)c(C)c2)cc1-c1ccc(C(C)(C)C)cc1 = 10
• Cc1cc(CNC(=O)c2cc(-c3ccc(N4CCOCC4)cc3)n(C)n2)ccc1OC(C)(C)C(=O)O = 85
• Cc1cc(CNC(=O)c2cc(-c3ccc(C(C)(C)C)cc3)n(Cc3ccccc3)n2)ccc1OC(C)(C)C(=O)O = 200
• Cc1cc(CNC(=O)c2cc(-c3ccc(CC(C)C)cc3)nn2C)ccc1OC(C)(C)C(=O)O = 45
• CCn1nc(-c2ccc(C(C)(C)C)cc2)cc1C(=O)NCc1ccc(OC(C)(C)C(=O)O)c(C)c1 = 50
• Cc1cc(CNC(=O)c2cc(-c3ccc(N4CCCC4)cc3)n(C)n2)ccc1OC(C)(C)C(=O)O = 8
• C=CCn1nc(-c2ccc(C(C)(C)C)cc2)cc1C(=O)NCc1ccc(OC(C)(C)C(=O)O)c(C)c1 = 45

* * *

For Peroxisome proliferator-activated receptor alpha (Homo sapiens, UniProt Q07869), measured EC50 is reported for the entries below.
Result Type: EC50

* CCn1nc(C(=O)NCc2ccc(OC(C)(C)C(=O)O)c(OC)c2)cc1-c1ccc(C(C)(C)C)cc1 | > 25000 nM
* Cc1nc(-c2ccc(C(C)(C)C)cc2)sc1C(=O)NCc1ccc(OC(C)(C)C(=O)O)cc1 | 4 nM
* Cc1cc(CNC(=O)c2cc(-c3ccc(C(C)(C)C)cc3)n(C)n2)ccc1OC(C)(C)C(=O)O | 10 nM
* COc1cc(CNC(=O)c2cc(-c3ccc(CC(C)C)cc3)n(C)n2)ccc1OC(C)(C)C(=O)O | > 25000 nM

* * *

- Assay Explanation: Cmax in CD rat at […], iv and 5 mg/kg, po
- Assay type: ADME, organism-based
- Measurement Setup: in vivo
Result Type: Cmax (ng/mL)

- Cc1cc(CNC(=O)c2cc(-c3ccc(C(C)(C)C)cc3)n(C)n2)ccc1OC(C)(C)C(=O)O: 1130

* * *

- Assayed System: Peroxisome proliferator-activated receptor delta (Homo sapiens, UniProt Q03181)
- Sequence (Q03181 whole entry): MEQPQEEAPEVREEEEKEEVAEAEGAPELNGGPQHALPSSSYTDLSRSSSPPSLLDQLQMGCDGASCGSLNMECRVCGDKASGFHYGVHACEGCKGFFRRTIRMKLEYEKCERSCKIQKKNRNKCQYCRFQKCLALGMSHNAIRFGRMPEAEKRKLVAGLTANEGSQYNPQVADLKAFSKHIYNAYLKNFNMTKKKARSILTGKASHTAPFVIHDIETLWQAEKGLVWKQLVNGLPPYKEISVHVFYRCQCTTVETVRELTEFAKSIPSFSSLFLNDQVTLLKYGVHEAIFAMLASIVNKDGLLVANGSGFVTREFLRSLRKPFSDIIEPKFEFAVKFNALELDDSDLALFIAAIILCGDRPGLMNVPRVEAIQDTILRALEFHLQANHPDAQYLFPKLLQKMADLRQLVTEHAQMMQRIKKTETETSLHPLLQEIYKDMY
pEC50: −log10 of the molar value.
The following compounds are listed with their measured pEC50 values.
Result Type: pEC50

• CCn1nc(-c2ccc(C(C)(C)C)cc2)cc1C(=O)NCc1ccc(OC(C)(C)C(=O)O)c(C)c1 = 5.57
• Cc1cc(CNC(=O)c2cc(-c3ccc(N4CCOCC4)cc3)n(C)n2)ccc1OC(C)(C)C(=O)O = 7.46
• Cc1nc(-c2ccc(C(C)(C)C)cc2)sc1C(=O)NCc1ccc(OC(C)(C)C(=O)O)cc1 = 5.00
• Cc1cc(CNC(=O)c2cc(-c3ccc(C(C)C)cc3)nn2C)ccc1OC(C)(C)C(=O)O = 5.87

* * *

For Peroxisome proliferator-activated receptor delta (Homo sapiens), measured pEC50 is reported for the entries below.
pEC50: −log10 of the molar value.
Result Type: pEC50

* Cc1cc(CNC(=O)c2cc(-c3ccc(OCc4ccccc4)cc3)n(C)n2)ccc1OC(C)(C)C(=O)O | < 4.60
* C=CCOc1ccc(-c2cc(C(=O)NCc3ccc(OC(C)(C)C(=O)O)c(C)c3)nn2C)cc1 | < 4.60
* Cc1cc(CNC(=O)c2cc(-c3ccc(C(C)(C)C)cc3)n(C)n2)ccc1OC(C)(C)C(=O)O | < 5.00
* CCn1nc(C(=O)NCc2ccc(OC(C)(C)C(=O)O)c(OC)c2)cc1-c1ccc(C(C)(C)C)cc1 | < 4.60
* COc1cc(CNC(=O)c2cc(-c3ccc(CC(C)C)cc3)n(C)n2)ccc1OC(C)(C)C(=O)O | < 4.60
